Sourced from the supplement of paper PMC4466140

Biological target: SpSla1-D1-D2
Test: SPOT peptide array binding signal intensity (averaged, normalized) (arbitrary units (background-subtracted, floor 0; scale differs between SH3 domains)); higher = stronger binding of the SH3 domain to the peptide
Attribute: SPOT peptide array binding signal intensity
Could you keep your reply to the number by itself?

Here is how some binders turned out for SPOT peptide array binding signal intensity.
1) AAHKTKPSIPPKKVE
4
2) TTAPALPSLPPPPLL
4

# input for lookup
**Q:** Requested read-out: SPOT peptide array binding signal intensity. Entry: GKKVRPLLVLLLSRA
**A:** 1
